Experiment: Evaluation of pharmacokinetic activity in male SD rats (iv and oral)
Format: in vivo
Settings: rat, plasma, iv, 1 mg/kg
measuredQuantity: half-life (min)

[1] CC(C)(C)c1cc(NC(=O)Nc2ccc(C#Cc3cnc4c(OCCN5CCOCC5)ccnn34)cc2)no1
[2] CC(C)(C)c1cc(NC(=O)Nc2ccc(C#Cc3ccc(OCCN4C[C@@H]5OCCO[C@@H]5C4)cc3)cc2)no1
Query :: Between the entries labelled 1 and 2 , which has a larger half-life value on record? Lab note: record the label of whichever item you select.
Result :: 2

----------
Assay: Evaluation of pharmacokinetic activity in male SD rats (iv and oral)
Type: in vivo
Conditions: rat, plasma, po, 5 mg/kg, read-out: Cmax
measuredQuantity: Cmax (ng/mL)

>>> recordedmeasurement("CC(C)(C)c1cc(NC(=O)Nc2ccc(C#Cc3ccc(OCCCN4CCOCC4)cc3F)cc2)no1 [Example 4]")
1370
>>> recordedmeasurement("CC(C)(C)c1cc(NC(=O)Nc2ccc(C#Cc3cnc4c(OCCN5CCOCC5)ccnn34)cc2)no1 [Example 9]")
1090

----------
Test: Evaluation of pharmacokinetic activity in male SD rats (iv and oral)
Format: in vivo
Settings: rat, plasma, iv, 1 mg/kg, read-out: Vss
measuredQuantity: Vd (L/kg)

>>> recordedmeasurement("CC(C)(C)c1cc(NC(=O)Nc2ccc(C#Cc3cnc4c(OCCN5CCOCC5)ccnn34)cc2)no1")
1.62
>>> recordedmeasurement("CC(C)(C)c1cc(NC(=O)Nc2ccc(C#Cc3ccc(OCCN4C[C@@H]5OCCO[C@@H]5C4)cc3)cc2)no1")
1.69

----------
Test: Evaluation of pharmacokinetic activity in male SD rats (iv and oral)
Assay type: in vivo
Conditions: rat, plasma, po, 5 mg/kg
measuredQuantity: AUC(0-t) (ng·h/mL)

>>> recordedmeasurement("CC(C)(C)c1cc(NC(=O)Nc2ccc(C#Cc3cnc4c(OCCN5CCOCC5)ccnn34)cc2)no1")
8010
>>> recordedmeasurement("CC(C)(C)c1cc(NC(=O)Nc2ccc(C#Cc3ccc(OCCCN4CCOCC4)cc3F)cc2)no1")
11300

----------
Test: Evaluation of pharmacokinetic activity in male SD rats (iv and oral)
Format: in vivo
Details: rat, plasma, iv, 2 mg/kg
measuredQuantity: Tmax (min)
Hi! Could you send only the number? It should be in min, unit omitted.

Query :: Recorded Tmax for CC(C)(C)c1cc(NC(=O)Nc2ccc(C#Cc3ccc(OCCCN4CCOCC4)cc3F)cc2)no1 , please?
Result :: 4.8

----------
Target: FLT3 kinase (Homo sapiens, UniProt P36888)
Sequence (P36888 27-993): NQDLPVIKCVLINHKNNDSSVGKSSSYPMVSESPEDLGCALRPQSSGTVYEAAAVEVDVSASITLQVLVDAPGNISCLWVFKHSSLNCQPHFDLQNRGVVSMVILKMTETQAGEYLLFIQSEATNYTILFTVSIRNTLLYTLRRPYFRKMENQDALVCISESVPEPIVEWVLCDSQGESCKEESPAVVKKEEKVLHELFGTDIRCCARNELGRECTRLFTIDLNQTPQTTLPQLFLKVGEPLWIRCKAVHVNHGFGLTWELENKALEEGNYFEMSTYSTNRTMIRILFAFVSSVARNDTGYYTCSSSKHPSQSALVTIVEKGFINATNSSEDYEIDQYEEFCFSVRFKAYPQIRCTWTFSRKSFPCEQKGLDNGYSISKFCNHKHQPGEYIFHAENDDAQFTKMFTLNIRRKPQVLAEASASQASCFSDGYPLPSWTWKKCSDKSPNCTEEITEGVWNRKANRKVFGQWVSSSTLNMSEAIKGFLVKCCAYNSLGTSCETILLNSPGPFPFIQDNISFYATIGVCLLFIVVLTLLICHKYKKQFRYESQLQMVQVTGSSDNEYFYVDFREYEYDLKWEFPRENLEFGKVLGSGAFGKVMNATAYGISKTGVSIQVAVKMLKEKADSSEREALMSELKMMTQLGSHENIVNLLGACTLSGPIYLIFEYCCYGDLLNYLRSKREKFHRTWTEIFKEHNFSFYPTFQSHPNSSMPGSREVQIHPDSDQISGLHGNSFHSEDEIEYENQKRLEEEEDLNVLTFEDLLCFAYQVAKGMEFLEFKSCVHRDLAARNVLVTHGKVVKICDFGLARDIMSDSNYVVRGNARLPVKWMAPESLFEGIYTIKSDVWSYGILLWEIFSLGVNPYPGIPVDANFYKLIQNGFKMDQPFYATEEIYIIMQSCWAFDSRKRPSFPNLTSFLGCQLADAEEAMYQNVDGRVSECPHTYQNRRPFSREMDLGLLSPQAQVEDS
measuredQuantity: IC50 (µM)

>>> recordedmeasurement("CC(C)(C)c1cc(NC(=O)Nc2ccc(C#Cc3ccc(OCCCN4CCOCC4)cc3Cl)cc2)no1")
0.189
>>> recordedmeasurement("CC(C)(C)c1cc(NC(=O)Nc2ccc(C#Cc3ccc(OCCCN4CCOCC4)c(F)c3)cc2)no1")
0.115

[P] CN(C)C1CCN(CCOc2ccc(C#Cc3ccc(NC(=O)Nc4cc(C(C)(C)C)on4)cc3)cc2)CC1
[Q] CN1CCN(CCOc2ccc(C#Cc3ccc(NC(=O)Nc4cc(C(C)(C)C)on4)cc3)cc2)CC1
Query :: Between the entries labelled P and Q , which has a larger IC50 value on record? Lab note: record the label of whichever item you select.
Result :: P
(P: 0.072 µM, Q: 0.028 µM)

----------
Assay: Evaluation of pharmacokinetic activity in male SD rats (iv and oral)
Assay type: in vivo
Settings: rat, plasma, iv, 1 mg/kg
measuredQuantity: AUC(0-t) (ng·h/mL)

[1] CC(C)(C)c1cc(NC(=O)Nc2ccc(C#Cc3ccc(OCCN4C[C@@H]5OCCO[C@@H]5C4)cc3)cc2)no1 [Example 24]
[2] CC(C)(C)c1cc(NC(=O)Nc2ccc(C#Cc3cnc4c(OCCN5CCOCC5)ccnn34)cc2)no1 [Example 9]
Query :: Between the entries labelled 1 and 2 , which has a larger AUC(0-t) value on record? Lab note: record the label of whichever item you select.
Result :: 1
(1: 2130 ng·h/mL, 2: 1330 ng·h/mL)

----------
Test: Evaluation of pharmacokinetic activity in male SD rats (iv and oral)
Format: in vivo
Details: rat, plasma, iv, 2 mg/kg, read-out: Cmax
measuredQuantity: Cmax (ng/mL)
Hi! Could you send only the number? It should be in ng/mL, unit omitted.

Query :: Recorded Cmax for CC(C)(C)c1cc(NC(=O)Nc2ccc(C#Cc3ccc(OCCCN4CCOCC4)cc3F)cc2)no1 , please?
Result :: 2690

----------
Test: Evaluation of pharmacokinetic activity in male SD rats (iv and oral)
Format: in vivo
Conditions: rat, plasma, po, 5 mg/kg
measuredQuantity: Tmax (h)

>>> recordedmeasurement("CC(C)(C)c1cc(NC(=O)Nc2ccc(C#Cc3cnc4c(OCCN5CCOCC5)ccnn34)cc2)no1")
2.67

[I] CC(C)(C)c1cc(NC(=O)Nc2ccc(C#Cc3ccc(OCCCN4CCOCC4)cc3F)cc2)no1
[II] CC(C)(C)c1cc(NC(=O)Nc2ccc(C#Cc3ccc(OCCN4C[C@@H]5OCCO[C@@H]5C4)cc3)cc2)no1
Query :: Identify the entry with the smaller Tmax: I or II . Lab note: record the label of whichever item you select.
Result :: I
(I: 2.67 h, II: 4 h)

----------
Assay: Evaluation of pharmacokinetic activity in male SD rats (iv and oral)
Format: in vivo
Details: rat, plasma, iv, 1 mg/kg
measuredQuantity: Tmax (min)

>>> recordedmeasurement("CC(C)(C)c1cc(NC(=O)Nc2ccc(C#Cc3cnc4c(OCCN5CCOCC5)ccnn34)cc2)no1")
4.98
>>> recordedmeasurement("CC(C)(C)c1cc(NC(=O)Nc2ccc(C#Cc3ccc(OCCN4C[C@@H]5OCCO[C@@H]5C4)cc3)cc2)no1")
4.98

----------
Assay: Evaluation of pharmacokinetic activity in male SD rats (iv and oral)
Assay type: in vivo
Conditions: rat, plasma, iv, 1 mg/kg
measuredQuantity: AUC(0-inf) (ng·h/mL)

[a] CC(C)(C)c1cc(NC(=O)Nc2ccc(C#Cc3ccc(OCCN4C[C@@H]5OCCO[C@@H]5C4)cc3)cc2)no1
[b] CC(C)(C)c1cc(NC(=O)Nc2ccc(C#Cc3cnc4c(OCCN5CCOCC5)ccnn34)cc2)no1
Query :: Between the entries labelled a and b , which has a larger AUC(0-inf) value on record? Lab note: record the label of whichever item you select.
Result :: a
(a: 2160 ng·h/mL, b: 1390 ng·h/mL)

----------
Test: Evaluation of pharmacokinetic activity in male SD rats (iv and oral)
Type: in vivo
Conditions: rat, plasma, iv, 2 mg/kg, read-out: Vss
measuredQuantity: Vd (L/kg)
Hi! Could you send only the number? It should be in L/kg, unit omitted.

Query :: Recorded Vd for CC(C)(C)c1cc(NC(=O)Nc2ccc(C#Cc3ccc(OCCCN4CCOCC4)cc3F)cc2)no1 , please?
Result :: 1.83

----------
Assay: Evaluation of pharmacokinetic activity in male SD rats (iv and oral)
Format: in vivo
Settings: rat, plasma, iv, 1 mg/kg, read-out: Cmax
measuredQuantity: Cmax (ng/mL)

[I] CC(C)(C)c1cc(NC(=O)Nc2ccc(C#Cc3ccc(OCCN4C[C@@H]5OCCO[C@@H]5C4)cc3)cc2)no1
[II] CC(C)(C)c1cc(NC(=O)Nc2ccc(C#Cc3cnc4c(OCCN5CCOCC5)ccnn34)cc2)no1
Query :: Identify the entry with the smaller Cmax: I or II . Lab note: record the label of whichever item you select.
Result :: II
(II: 793 ng/mL, I: 1340 ng/mL)

Numbers sourced from patent US10065934B2.
